- assay procedure: 5% mass reduction temperature (TG-DTA)
- Format: physicochemical
- study conditions: nitrogen atmosphere, 50 to 400° C., heating rate 10° C./min
Below, each entry is listed alongside its reported 5% mass reduction temperature.
readout name: 5% mass reduction temperature

1. CCN(CC)C(=O)CCC1(CCC(=O)N(CC)CC)c2ccccc2-c2ccccc21 :: 294 °C
2. NC(=O)CCC1(CCC(N)=O)c2ccccc2-c2ccccc21 :: 320 °C
3. CC(C)NC(=O)CCC1(CCC(=O)NC(C)C)c2ccccc2-c2ccccc21 :: 257 °C
4. CN(C)C(=O)CCC1(CCC(=O)N(C)C)c2ccccc2-c2ccccc21 :: 318 °C
